Would you kindly list Expression Normalization to mAb 65C12 for each of these binders?
- TARGET_OF_ASSAY: T1, human ASGR-1 mutant construct H203 (human, UniProt P07306 1-291)
- T1 construct: Arg/Glu scanning: non-arginine residues were changed to arginine; Transiently expressed on CHO-S cells
- T1 sequence: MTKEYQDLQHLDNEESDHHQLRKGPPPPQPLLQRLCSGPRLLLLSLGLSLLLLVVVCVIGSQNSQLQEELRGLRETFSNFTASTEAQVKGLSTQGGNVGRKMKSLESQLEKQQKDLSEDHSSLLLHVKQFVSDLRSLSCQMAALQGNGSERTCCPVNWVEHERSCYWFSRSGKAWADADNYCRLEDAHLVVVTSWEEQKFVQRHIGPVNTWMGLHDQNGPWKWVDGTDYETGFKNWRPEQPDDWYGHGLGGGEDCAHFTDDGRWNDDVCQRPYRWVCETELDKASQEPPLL
- ASSAY_EXPLANATION: FACS ratio: 65C12 geomean / this mAb geomean
Just the number, please, no unit attached.

Query: Returns the measured Expression Normalization to mAb 65C12 for the input binder. Input: 65D5 (antibody, V domains shown, mAb) VH: QVQLVQSGAEVKKPGASVKVSCKASGYTFPSYGISWVRQAPGQGLEWMGWISAYSGNTNYAQKLQGRVTMTTDTSTSTAYMELRSLRSDDTAVYFCARGEAVAVFDPWGQGTLVTVSS VL: DIQMTQSPSSLSASVGDRVTITCRASQDINNYLAWFQQKPGKAPRSLIYAASSLHSGVPSQFSASGSGSDFTLTISSLQPEDFATYYCPLYKSYPLTFGPGTKVDIK
Result: 1.27

Query: // returns reported Expression Normalization to mAb 65C12 for input 202A3 (antibody, V domains shown, mAb) VH: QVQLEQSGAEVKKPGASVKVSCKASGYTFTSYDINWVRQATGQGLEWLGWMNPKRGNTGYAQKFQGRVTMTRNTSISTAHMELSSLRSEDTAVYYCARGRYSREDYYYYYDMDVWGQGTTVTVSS VL: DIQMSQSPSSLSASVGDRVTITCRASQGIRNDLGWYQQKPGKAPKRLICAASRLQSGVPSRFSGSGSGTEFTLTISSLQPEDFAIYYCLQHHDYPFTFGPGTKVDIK
Result: 2.06

Query: I would be grateful if you could share the reported Expression Normalization to mAb 65C12 for 29E2 (antibody, V domains shown, mAb) VH: QVQLVESGGGVVQPGRSLRLSCAASGFTFSNCVMHWVRQAPGKGLEWVAVIWYDGSNKYYADSVKGRITISRDNSKNTLYLQMNSLRAEDTAVYYCAREEYSSGWYDYGMDVWGQGTTVTVSS VL: DIQMTQSPSSLSASVGDRVTITCRASQAIRNDLGWYQQRPGKAPKRLIYAASSLQSGVPSRFSGSGSGTEFILTISSLQPEDFATYYCLQHYNYPRSFGQGTKLEIK .
Result: 1.71

Cited source: patent US20190248902A1
